# Tested on: MDA-MB-231
# assayExplanation: NCI tumour cell line growth inhibition, 48 h
The source made the active and inactive calls. Cut-off read from the data, not from the text of the source: active = GI50 up to about 1.1 µM and inactive = higher.
# key: entry, value: GI50

Solved cases below.
molecule	GI50
COc1cc(OC)c2c(c1OC)OCC(Cc1ccc(O)cc1)C2=O (centres undefined)	> 25 µM (inactive)
CC1(C)CN=C(Nc2ccc(F)c(F)c2)S1	> 100 µM (inactive)
CCCCCCCCCC[C@@H](OC(C)=O)[C@@H]1CC[C@@H]([C@@H]2CC[C@@H]([C@@H](O)CC#C/C=C/CCCCCCC[C@@]3(Sc4ccccc4)C[C@H](C)OC3=O)O2)O1	> 10 µM (inactive)
CCOC1=NC(C(F)(F)F)(C(F)(F)F)N=C(N2CCCCC2)O1	> 100 µM (inactive)
CC(=O)N(CN1C(=O)CCC1C(=O)O)c1cccc(O)c1 (centres undefined)	> 100 µM (inactive)

Could you please provide reported GI50 for "C=C(CN(C)C)C(=O)c1ccccc1" ? Thanks!
15.1 µM (inactive)

Please list GI50 recorded for the molecule COC1/C=C\C=C(/C)C(=O)NC2=CC(=O)C(NCCCl)=C(CC(C)CC(OC)C(O)C(C)/C=C(/C)C1OC(N)=O)C2=O (centres undefined)
2 µM (inactive)

Answer with reported GI50 of COC(=O)C1=C(OC(=O)/C=C/c2ccccc2)C(C(=O)OC)[C@@]2(O)[C@@H](C(=O)OC)[C@H](C)C[C@@H]1[C@@H]2C(=O)OC (some centres undefined)
14.8 µM (inactive)

Indicate its recorded GI50; the molecule in question is CCOc1cn(C2CC(O)C(CO)O2)c(=O)[nH]c1=O (centres undefined)
> 100 µM (inactive)

====

List of GI50 values.
# Test system: OVCAR-8
# assayExplanation: NCI tumour cell line growth inhibition, 48 h
The source made the active and inactive calls. Cut-off read from the data, not from the text of the source: active = GI50 up to about 1.1 µM and inactive = higher.

Here are 5 compounds together with their reported answers.
compound	studyTarget	GI50
O=C1C=CC(=O)c2c1c1c(c3c2C2c4ccccc4C3c3ccccc32)C2c3ccccc3C1c1ccccc12	OVCAR-8	1.53 µM (inactive)
Cc1ccc2c3ccc4c(c3n(C)c2c1)C(=O)C=CC4=O	OVCAR-8	4.47 µM (inactive)
O=C(Cn1c2c(c3ccccc31)CCCC2)NC1CCCCC1	OVCAR-8	> 100 µM (inactive)
N=C1C(O)C2(I)c3ccccc3N3C(=N)C(O)C4c5ccccc5N1C4C32 (stereo not given)	OVCAR-8	33.5 µM (inactive)
N#C[C@H](c1nc2ccccc2[nH]1)c1nc2ccccc2nc1Cl	OVCAR-8	12.6 µM (inactive)

Give the value of GI50 reported for the following: "CC(=O)c1cccc(N2COC(C)(C)c3nc4ccccc4n3C2)c1"
> 100 µM (inactive)

====

# Test system: OVCAR-3
# assayExplanation: NCI tumour cell line growth inhibition, 48 h
The source made the active and inactive calls. Cut-off read from the data, not from the text of the source: active = GI50 up to about 1.1 µM and inactive = higher.
reportedProperty: GI50

// solved cases for GI50 follow
compound	studyTarget	GI50
Cc1cccc2nc3cccc(C(=O)NCCN(C)C)c3nc12	OVCAR-3	1.36 µM (inactive)
CC(C)(C)C(=O)CC(=O)C(F)(F)C(F)(F)C(F)(F)F	OVCAR-3	14.1 µM (inactive)
Cc1nnc(Nc2ccccc2)o1	OVCAR-3	> 100 µM (inactive)
O=C1CCC(=O)c2sccc2N1	OVCAR-3	> 100 µM (inactive)
O=C1/C=C(/c2ccc(O)cc2)[C@@H](OC2OC(CO)C(O)C(O)C2O)Cc2ccc(O)cc2O1.O=C1/C=C(/c2ccc(O)cc2)[C@H](O)Cc2ccc(O[C@@H]3OC(CO)C(O)C(O)C3O)cc2O1 (some centres undefined)	OVCAR-3	> 100 µM (inactive)

Determine its reported GI50: "NC1=NS(=O)(=O)Nc2[nH]c(-c3ccccc3)nc21"
> 100 µM (inactive)

Provide GI50 value for the following compound: "CCOC(=O)C1=NC(c2ccccc2)(c2ccccc2)OC1=C(Cl)Cl"
42.2 µM (inactive)

Entry "O=c1c2cc(S(=O)(=O)O)ccc2nc(COc2ccc(Oc3ccc(Cl)cc3Cl)cc2)n1-c1ccc(Oc2ccc(Cl)cc2)cc1Cl" needs its GI50 filled in; supply it.
18.3 µM (inactive)

Indicate its recorded GI50; the compound in question is "COC(=O)C1=C(c2ccc3c(c2)OCO3)O[C@H](c2ccc3c(c2)OCO3)[C@H]1COC(C)=O"
55.6 µM (inactive)
